System: HT29 colon
Assay: NCI-60 one-dose screen, 48 h (100 = growth as untreated, 0 = no growth, -100 = all killed)
Details: 10 µM unless noted
About 83,000 compounds went through this panel and 20% of them were active in at least one assay; those are over-represented in the sample as a whole. The source made the active and inactive calls. The calls were made as follows: active = growth percent below 10; inactive = the rest.
growth reference

Worked cases, answers included:
{"Compound": "C=CCc1nc2ccccc2s1", "growth": "89.9% (inactive)"}
{"Compound": "Oc1c(CNCCNCc2cc(Cl)cc(Cc3ccccc3)c2O)cc(Cl)cc1Cc1ccccc1", "growth": "30.6% (inactive)"}
{"Compound": "COc1cc(NN=C(c2ccc(O)cc2)c2ccc(O)cc2)c([N+](=O)[O-])cc1[N+](=O)[O-]", "growth": "98.1% (inactive)"}
{"Compound": "C[n+]1c2ccccc2nc2c(N)cc(N)cc21", "growth": "84.7% (inactive)"}
{"Compound": "C=C(C)[C@@H]1CC[C@]2(C(=O)NCCNCCNC(=O)OC(C)(C)C)CC[C@]3(C)[C@H](CC[C@@H]4[C@@]5(C)CCC(=O)C(C)(C)[C@@H]5CC[C@]43C)[C@@H]12", "growth": "23.7% [100 µM] (inactive)"}
{"Compound": "CC(C)C1=NOC(=O)C1=Cc1cn(-c2ccccc2)nc1-c1ccc(Cl)cc1", "growth": "67.9% (inactive)"}
{"Compound": "COc1cc(/C=C/C(=O)/C=C/c2ccc(-n3ccnc3)cc2)ccc1O", "growth": "3.46% (active)"}
{"Compound": "CCCC[C@@H](C=O)NC(=O)[C@H](CC(C)C)NC(=O)[C@H](CC(C)C)NC(=O)OCc1ccccc1", "growth": "-19.4% (active)"}

Entry under review: COc1ccc(C2NC(=O)C(C#N)c3c2sc2c(F)cccc32)cc1 (stereo not given) . Reported growth?
50.5% (inactive)

Recorded growth of `COc1ccc(/C=C(/C2=NCCN2)n2ccc3ccccc32)cc1` , please.
89% (inactive)

Record request: growth value, item `CCOC(=O)/C(C#N)=C(\C)CCc1ccccc1`
98.6% (inactive)

Which growth is reported for this compound? `O=C(NCCCNC(=O)OCc1ccc2c(Br)cc(Br)c(O)c2n1)OCc1ccc2c(Br)cc(Br)c(O)c2n1`
-73% (active)

Reported growth, compound `Cn1cc(-c2noc(C(=O)c3cn(C)c4ncccc34)n2)c2ccccc21` : ____
102% (inactive)

Quick check: growth of `O=C(Nc1ccc(Nc2ccncc2)cc1)c1ccc([N+](=O)[O-])cc1` ?
63.4% (inactive)

Find the recorded growth belonging to `CCOC(=O)c1ccc2nc(-c3c(C)nn(-c4ccccc4)c3N3CCOCC3)[nH]c2c1` and report it.
110% (inactive)

Request the reported growth associated with `CN(C)CCCNc1nc(-c2cccc(C(Cl)(Cl)Cl)c2)nc(C(Cl)(Cl)Cl)n1`
94.9% (inactive)

Look up growth for this compound: `CC(C)(C)c1cc(C(=O)Nc2cc3ccccc3cc2C(=O)NCCN)cc(C(C)(C)C)c1`
-79.6% (active)

Fill in the blank: the reported growth of `O=C(Nc1cccc(F)c1)c1cc(=O)[nH]c2cc(Br)ccc12` is ____.
9.92% (active)

Look up growth: `C=C(C)[C@@H]1CC[C@]2(C(=O)NCCCN)CC[C@]3(C)[C@H](CC[C@@H]4[C@@]5(C)CC[C@H](O)C(C)(C)[C@@H]5CC[C@]43C)[C@@H]12`
3.9% [100 µM] (active)

Any idea what growth was measured for `CCCCNC(=O)NS(=O)(=O)Cc1ccccc1` ?
114% (inactive)

Return reported growth; argument: `CN(C)C(=S)Sc1ccc([N+](=O)[O-])cc1[N+](=O)[O-]`
-16.6% (active)
